Target: first bromodomain (BrD1) of human BRD4 (Homo sapiens)
Construct: the first bromodomain (BrD1) of human BRD4; poly-His (cleaved yes)
Assay: Fluorescence anisotropy binding assay (competition with FITC-labeled MS417 probe)
Settings: FITC-MS417 probe 80 nM, PBS pH 7.4, 1 hour, 25° C., read-out: BRD4_1 IC50
pIC50: −log10 of the molar value.
Entries and their pIC50 values follow.

Recorded results for 5 compounds are shown here.
CC1=C(Nc2cccc(C(=O)Nc3cccc(C)c3)c2)CCC1=O	5.00 to 6.00
COc1cc(C(=O)Nc2ccc(C)cc2)ccc1NC1=C(C)C(=O)CC1	5.00 to 6.00
CC1=C(Nc2ccc(C(=O)O)c(Cl)c2)CCC1=O	< 5.00
CC1=C(Nc2cc3ccccc3cn2)CCCC1=O	5.00 to 6.00
N#CC1=C(Nc2cc(C(=O)O)ccc2Cl)CCCC1=O	< 5.00

-- ask State the measured pIC50 (first bromodomain (BrD1) of human BRD4 (Homo sapiens)) of CC1=C(NC2CCN(C(=O)OC(C)(C)C)CC2)CCC1=O
-- reply < 5.00

-- ask State the measured pIC50 (first bromodomain (BrD1) of human BRD4 (Homo sapiens)) of CC1=C(Nc2ccc(NC(=O)c3ccccc3C)cc2Cl)CCC1=O
-- reply > 6.00

* * *

Entries and their pIC50 values follow.
Target: BRD4_2 (Homo sapiens, UniProt O60885)
Construct: contains two tandem bromodomains (BrD1 and BrD2)
Test: Fluorescence anisotropy binding assay (competition with FITC-labeled MS417 probe), BRD4_2
Settings: FITC-MS417 probe 80 nM, PBS pH 7.4, 1 hour, 25° C.
pIC50: −log10 of the molar value.

Recorded results for 4 compounds are shown here.
CC1=C(N[C@H]2CC[C@H](C(=O)Nc3ccccc3C)CC2)CCC1=O	< 5.00
CC1=C(Nc2ccccc2C(=O)O)CCC1=O	< 5.00
CC1=C(Nc2cccc(C(=O)O)c2Cl)CCC1=O	< 5.00
CC1=C(Nc2ccc3cnccc3c2)CCCC1=O	5.00 to 6.00

Proceeding to the next compound to report its pIC50.
-- ask Indicate the recorded pIC50 value for this compound: CC1=C(N[C@H]2CC[C@@H](C(=O)Nc3ccc(C)cc3)CC2)CCC1=O
-- reply < 5.00

* * *

MEASURED_METRIC: melting point

CC1=C(Nc2cccc(NS(=O)(=O)c3ccccc3C)c2Cl)CCCC1=O	185 to 187 °C
CC1=C(Nc2ccncc2Cl)CCCC1=O	135 to 138 °C
CC1=C(Nc2ccc3[nH]c(=O)[nH]c3c2)CCCC1=O	233 to 235 °C
CC1=C(Nc2cc(Cl)c(C(=O)O)cc2Cl)CCC1=O	229 to 232 °C
CC1=C(Nc2ccc(NS(=O)(=O)C3CCCCC3)cc2Cl)CCC1=O	210 to 213 °C

Proceeding to the next compound to report its melting point.
-- ask Indicate the recorded melting point value for this compound: CC1=C(Nc2ccccn2)CCC1=O
-- reply 163 to 165 °C

* * *

Entries and their IC50 values follow.
Molecular target: first bromodomain (BrD1) of human BRD4 (Homo sapiens)
Construct: the first bromodomain (BrD1) of human BRD4; poly-His (cleaved yes)
Assay: Fluorescence anisotropy binding assay (competition with FITC-labeled MS417 probe)
Details: FITC-MS417 probe 80 nM, PBS pH 7.4, 1 hour, 25° C., read-out: BRD4_1 IC50

CC1=C(N[C@H]2CC[C@@H](C(=O)Nc3ccc(C)cc3)CC2)CCC1=O [Example 04-40]	> 10000 nM

-- ask Indicate the recorded IC50 value for this compound: CC1=C(Nc2cccc(-c3cn(Cc4ccccc4F)nn3)c2)CCC1=O [Examples 06-8]
-- reply < 1000 nM

-- ask Indicate the recorded IC50 value for this compound: CC1=C(Nc2ccc(C(=O)Nc3ccc(C)cc3)cc2C)CCC1=O [Example 04-86]
-- reply 1000 to 10000 nM

-- ask Indicate the recorded IC50 value for this compound: CC1=C(Nc2cc(NS(=O)(=O)c3ccccc3F)ccc2Cl)CCC1=O [Example 05-58]
-- reply < 1000 nM

* * *

Target: BRD4_2 (Homo sapiens)
Construct: contains two tandem bromodomains (BrD1 and BrD2)
Assay: Fluorescence anisotropy binding assay (competition with FITC-labeled MS417 probe), BRD4_2
Conditions: FITC-MS417 probe 80 nM, PBS pH 7.4, 1 hour, 25° C.
pIC50: −log10 of the molar value.
MEASURED_METRIC: pIC50

Recorded results for 5 molecules are shown here.
COc1ccccc1NC(=O)c1ccc(NC2=C(C)C(=O)CC2)c(Cl)c1	5.00 to 6.00
COc1ccccc1S(=O)(=O)Nc1ccc(Cl)c(NC2=C(C)C(=O)CC2)c1	> 6.00
COc1cccc(NC(=O)c2ccc(NC3=C(C)C(=O)CC3)c(C)c2)c1	5.00 to 6.00
COc1cc(C(=O)O)ccc1NC1=C(C)C(=O)CC1	5.00 to 6.00
CC1=C(Nc2cccc(NS(=O)(=O)c3ccccc3C)c2Cl)CCC1=O	5.00 to 6.00

Proceeding to the next molecule to report its pIC50.
-- ask Indicate the recorded pIC50 value for this molecule: COC(=O)c1ccccc1NC1=C(C)C(=O)CC1
-- reply < 5.00

* * *

MEASURED_METRIC: melting point

Recorded results for 2 compounds are shown here.
CC1=C(Nc2cc(NS(=O)(=O)N3CCOCC3)ccc2Cl)CCC1=O [Example 05-62]	60 to 67 °C
CC1=C(Nc2cc(NS(C)(=O)=O)ccc2Cl)CCC1=O [Example 05-53]	213 to 215 °C

Proceeding to the next compound to report its melting point.
-- ask Indicate the recorded melting point value for this compound: CC1=C(Nc2ccc(C(=O)O)cc2Br)CCC1=O [Example 02-07]
-- reply 246 to 248 °C

* * *

Target: BRD4_2 (Homo sapiens)
Construct: contains two tandem bromodomains (BrD1 and BrD2)
Test: Fluorescence anisotropy binding assay (competition with FITC-labeled MS417 probe), BRD4_2
Conditions: FITC-MS417 probe 80 nM, PBS pH 7.4, 1 hour, 25° C.
MEASURED_METRIC: IC50

Recorded results for 10 molecules are shown here.
CC1=C(Nc2ccc(C(=O)Nc3ccc(C)cc3)cc2)CCC1=O [Example 03-7]	1 to 10 µM
CC1=C(Nc2ccc(NS(=O)(=O)c3ccccc3C)cc2Cl)CCCC1=O [Example 05-68]	1 to 10 µM
COc1cc(NC2=C(C)C(=O)CC2)ccc1C(=O)Nc1ccccc1 [Example 04-68]	1 to 10 µM
CC1=C(Nc2ccc(C(=O)Nc3cccc4ccccc34)cc2)CCC1=O [Example 03-16]	1 to 10 µM
CC1=C(Nc2ccc(C(=O)Nc3ccccc3C)cc2Cl)CCC1=O [Example 04-20]	1 to 10 µM
CC1=C(Nc2cccc(C(=O)Nc3cccc4ccccc34)c2)CCC1=O [Example 04-2]	1 to 10 µM
CC1=C(Nc2ccc(C(=O)NC3CCCCC3)cc2C)CCC1=O [Example 04-78]	1 to 10 µM
CC1=C(Nc2cccc(NCCc3ccccc3C)c2Cl)CCCC1=O [Example 05-79]	> 10 µM
COC(=O)c1ccc(NC2=C(C)C(=O)CC2)c(Br)c1 [Example 01-22]	1 to 10 µM
CC1=C(Nc2cnc3ccccc3c2)CCCC1=O [Example 01-59]	> 10 µM

-- ask Indicate the recorded IC50 value for this molecule: CC1=C(Nc2cccc(N)c2Cl)CCC1=O [Example 02-13]
-- reply 1 to 10 µM

-- ask Indicate the recorded IC50 value for this molecule: COC(=O)c1ccc(NC2=CC(=O)CC2)cc1 [Example 01-1]
-- reply 1 to 10 µM

-- ask Indicate the recorded IC50 value for this molecule: CC1=C(Nc2ccc(C(=O)O)cc2)CCC1=O [Examples 02-1]
-- reply > 10 µM

-- ask Indicate the recorded IC50 value for this molecule: COc1cc(C(=O)Nc2ccccc2)ccc1NC1=C(C)C(=O)CC1 [Example 04-56]
-- reply 1 to 10 µM

-- ask Indicate the recorded IC50 value for this molecule: CC1=C(Nc2cccc(-c3cn(Cc4ccccc4C)nn3)c2)CCC1=O [Example 06-10]
-- reply 1 to 10 µM

-- ask Indicate the recorded IC50 value for this molecule: COc1ccc(NC(=O)c2ccc(NC3=C(C)C(=O)CC3)cc2OC)cc1 [Example 04-71]
-- reply 1 to 10 µM

-- ask Indicate the recorded IC50 value for this molecule: COC(=O)c1ccc(NC2=C(C)C(=O)CC2)c(I)c1 [Example 01-43]
-- reply 1 to 10 µM

-- ask Indicate the recorded IC50 value for this molecule: N#CC1=C(Nc2cccc(Cl)c2)CCCC1=O [Example 05-32]
-- reply > 10 µM

* * *

Entries and their melting point values follow.

Recorded results for 3 compounds are shown here.
CC1=C(Nc2cc(C(=O)O)ccc2Cl)CCCC1=O [Example 01-36]	232 to 235 °C
CC1=C(Nc2ccc(Cl)cc2C(=O)O)CCC1=O [Example 02-05]	242 to 245 °C
CC1=C(Nc2ccc(C(=O)O)cc2I)CCC1=O [Example 02-08]	263 to 264 °C

Proceeding to the next compound to report its melting point.
-- ask Indicate the recorded melting point value for this compound: CC1=C(Nc2ccc3cc(C(=O)O)ccc3c2Cl)CCCC1=O [Example 01-53]
-- reply 272 to 275 °C (dec.)
